system: HCT-116 colon; assay: NCI tumour cell line growth inhibition, 48 h
Consider the following compounds and their measured log10 of TGI readings.
Use the decimal logarithm of TGI (µM).

STRUCTURE_AS_SMILES: Cc1cc2c3ccccc3n(C)c2c2c1C(=O)C=CC2=O
TEST_TARGET: HCT-116 colon
ASSAY_METRIC: log10 of TGI
MEASURED_NUMBER: 1.59

STRUCTURE_AS_SMILES: CCC(CC)n1c(C)nc2c1C(=O)c1ccccc1C2=O
TEST_TARGET: HCT-116 colon
ASSAY_METRIC: log10 of TGI
MEASURED_NUMBER: 1.89

STRUCTURE_AS_SMILES: Brc1ccc2[nH]cc(-c3nc(-c4c[nH]c5ccccc45)cs3)c2c1
TEST_TARGET: HCT-116 colon
ASSAY_METRIC: log10 of TGI
MEASURED_NUMBER: 0.85

Entry `CN1CN(c2ccccc2)C2(CCN(CCc3csc4ccccc34)CC2)C1=O` ; assay system HCT-116 colon; log10 of TGI recorded at 1.37

The recorded log10 of TGI with HCT-116 colon for `Cc1cn(Cc2ccccc2CCl)c(=O)[nH]c1=O` was 1.25

----------
test system: COLO 205 colon; assay: NCI tumour cell line growth inhibition, 48 h
ASSAY_METRIC: GI50

Completed entries (count: 4):
MOLECULE: COc1cc[nH]c1/C=C1\C(=O)Nc2ccc(F)c(I)c21
TEST_TARGET: COLO 205 colon
GI50: > 25 µM
--
MOLECULE: Cn1ccnc1C(=O)/C=C/c1ccc(CC(=O)Nc2ccccc2)cc1
TEST_TARGET: COLO 205 colon
GI50: 3.77 µM
--
MOLECULE: C=C1C(=O)O[C@H]2[C@H]1CC/C(COC(=O)N1CCC[C@H]1C(=O)Nc1ccc(OC)c(C(N)=O)c1O)=C\CC[C@@]1(C)O[C@@H]21
TEST_TARGET: COLO 205 colon
GI50: 1.6 µM
--
MOLECULE: CN(CCOc1ccc(C#N)cc1)CCOc1ccc(C#N)cc1
TEST_TARGET: COLO 205 colon
GI50: > 100 µM

GI50 of `CCN(Cc1ccccc1OC)c1ccc(CO)c(Cl)c1` , assay on COLO 205 colon, is 4.81 µM

The measured GI50 that `Clc1nc(Cl)c2c(ncn2C/C=C\Cn2cnc3c(Cl)nc(Cl)nc32)n1` showed for COLO 205 colon is 1.46 µM

// returns GI50 for COc1ccc2c(c1)OC(N(C(C)=O)C(C)=O)=C(C#N)C2c1ccc(F)cc1 (stereo not drawn) with COLO 205 colon; value = 2.2 µM

For `CCCCN(Cc1ccc(F)cc1)c1ccc(CO)c(Cl)c1` on COLO 205 colon, measured GI50 was 14 µM

----------
system: SF-268 CNS; test: NCI tumour cell line growth inhibition, 48 h; in the data active = GI50 below about 0.43 µM; inactive = the rest
Response enum: true = active, false = inactive

As a guide, the following entries are already answered.
COMPOUND: CC(=O)Nc1ccc2c(c1)oc(=O)c1cc(NC(C)=O)ccc12
CLASSIFICATION: false

COMPOUND: COC(=O)CNC(=O)[C@@H](OC)[C@@H]1Cc2cc3cc(OC4CC(OC5CC(O)C(O)C(C)O5)C(O)C(C)O4)c(C)c(O)c3c(O)c2C(=O)[C@H]1OC1CC(OC2CC(OC3CC(C)(O)C(O)C(C)O3)C(O)C(C)O2)C(O)C(C)O1 (some centres not stated)
CLASSIFICATION: true

COMPOUND: COc1cc(Nc2nc(N[C@H]3CCCC[C@@H]3N)nc3cc[nH]c(=O)c23)cc(OC)c1
CLASSIFICATION: false

COMPOUND: C#CC[C@@H]1C[C@]2(C)[C@H]3CC=C4[C@H]5CC(C)(C)CC[C@]5(C(=O)NCCCCN)CC[C@@]4(C)[C@]3(C)CC[C@H]2C(C)(C)[C@H]1OC(C)=O
CLASSIFICATION: false

COMPOUND: C=C1C(=O)O[C@H]2[C@H]1CC/C(COC(=O)N1CCC[C@H]1C(=O)Nc1ccc(OC)c(C(N)=O)c1O)=C\CC[C@@]1(C)O[C@@H]21
CLASSIFICATION: false

Give the logged outcome of this assay for the following compound: COc1c(N2CCN(CN3C(=O)C(=Nc4ccc(S(=O)(=O)Nc5ncccn5)cc4)c4ccccc43)C(C)C2)c(F)cc2c(=O)c(C(=O)O)cn(C3CC3)c12 (configuration not stated)
false

Returns: the outcome recorded for `O=C1/C(=C/c2ccc(O)cc2)COc2ccc(-c3ccccc3)cc21` in this assay.
false

----------
test system: 786-0 renal; test: NCI tumour cell line growth inhibition, 48 h
Each entry below carries its recorded TGI.

COMPOUND: Cn1nc(-c2ccccc2)c(C(=O)/C=C/c2ccccc2)c(N2CCOCC2)c1=O
TEST_TARGET: 786-0 renal
TGI: 32.4 µM
--
COMPOUND: CN(CCc1ccc(N)cc1)[C@H]1CCCC[C@H]1N1CCCC1
TEST_TARGET: 786-0 renal
TGI: > 100 µM
--
COMPOUND: CCC(=O)O[C@H]1CC[C@H]2[C@@H]3CCC4=C/C(=N/NC(=O)c5cccc6c(=O)c7ccccc7[nH]c56)CC[C@]4(C)[C@H]3CC[C@]12C
TEST_TARGET: 786-0 renal
TGI: 10.3 µM
--
COMPOUND: CN(C)Cc1cc(N=Nc2ccccc2)cc(CN(C)C)c1O
TEST_TARGET: 786-0 renal
TGI: > 100 µM
--
COMPOUND: CCN(Cc1ccccc1OC)c1ccc(CO)c(Cl)c1
TEST_TARGET: 786-0 renal
TGI: 26.2 µM

Reported TGI ( `COc1cc[nH]c1/C=C1\C(=O)Nc2ccc(F)c(I)c21` ) = > 25 µM

So for `CC(=O)Nc1ccc2c(c1)oc(=O)c1cc(NC(C)=O)ccc12` , the logged TGI turned out to be > 100 µM

Reported TGI ( `OCc1ccc(-c2nn(Cc3ccccc3)c3ccccc23)o1` ) = > 81.6 µM

----------
tested on: DMS 273 small cell lung; assay: NCI tumour cell line growth inhibition, 48 h
ASSAY_METRIC: TGI

Check out these entries, answers already filled in.
MOLECULE: Cn1nc(-c2ccccc2)c(C(=O)/C=C/c2ccccc2)c(N2CCOCC2)c1=O
TEST_TARGET: DMS 273 small cell lung
ASSAY_METRIC: TGI
RESULT: 51.4 µM
//
MOLECULE: CCC12CCCC(=O)N1C(CO)C(c1ccccc1)O2 (stereo unspecified)
TEST_TARGET: DMS 273 small cell lung
ASSAY_METRIC: TGI
RESULT: > 100 µM
//
MOLECULE: Cc1cc(=O)oc2cc3c(cc12)Oc1ccccc1O3
TEST_TARGET: DMS 273 small cell lung
ASSAY_METRIC: TGI
RESULT: > 100 µM
//
MOLECULE: O=C1C2=C(c3ccccc31)C(c1ccccc1)NC(=S)N2 (stereo unspecified)
TEST_TARGET: DMS 273 small cell lung
ASSAY_METRIC: TGI
RESULT: > 100 µM

# molecule CCCCCCCCCCCCCCCCCCCCCC(=O)Nc1ccn(C2OC(CO)C(O)C2O)c(=O)n1 (stereo unspecified) ; its TGI = > 100 µM

// `S=c1[nH]c2ccc(Br)cc2c(=S)n1-c1ccccc1` : TGI value = 60.7 µM

The molecule COc1cccc(C(=O)C2C(=O)N(C)CCc3ccccc32)c1OC (stereo unspecified) showed TGI equal to > 100 µM

# TGI of `CC(=O)n1c2ccccc2c2nc3nc(Oc4ccc(C)cc4)c4ccccc4c3cc21` = > 100 µM

Lab note: measured TGI of `N[C@H](C(=O)O)[C@H](Cl)CC(=O)O` was > 100 µM

Entry under test: COC(=O)C1C2C=CC(C2)N1[C@@H](C)c1ccccc1 (stereo partly specified) . Its TGI was > 100 µM

Entry `Cc1cccc(C(C)C)c1NC(=O)C(=O)CC(=O)c1c(C)n([O-])c2ccccc2[n+]1=O` , TGI reported as 99.2 µM

----------
Reported GI50 values for the following molecules.
test system: SF-295 CNS; assay: NCI tumour cell line growth inhibition, 48 h

Some solved entries appear below for comparison.
MOLECULE: Clc1nc(Cl)c2c(ncn2C/C=C\Cn2cnc3c(Cl)nc(Cl)nc32)n1
GI50: 8990 nM

MOLECULE: CN(CCOc1ccc(C#N)cc1)CCOc1ccc(C#N)cc1
GI50: 17300 nM

MOLECULE: COc1c(N2CCN(CN3C(=O)C(=Nc4ccc(S(=O)(=O)Nc5ncccn5)cc4)c4ccccc43)C(C)C2)c(F)cc2c(=O)c(C(=O)O)cn(C3CC3)c12 (stereo not given)
GI50: > 50000 nM

Quick note, GI50 for CC1C(=O)C(C)C(c2ccccc2)N(N=O)C1c1ccccc1 (stereo not given) landed at 181000 nM

Per the record, CC(CNC(Cc1ccccc1)c1ccccc1)NC(Cc1ccccc1)c1ccccc1 (stereo not given) has GI50 of 1520 nM

Summary for this molecule, `Oc1ccc(CCCCCCc2ccc(O)cc2)cc1` : GI50 is 3180 nM

Form field GI50, entry CC1OC2CC(=O)OC2C2=C1C(=O)c1c(O)c3c(c(O)c1C2=O)C1CC(O)C3(O)C(C)O1 (stereo not given) : 975 nM

Record C[C@@H]1COCCN1c1cc(C2(S(C)(=N)=O)CC2)nc(-c2ccnc3[nH]ccc23)n1 (stereo not given in full) , field GI50: 1660 nM

Quick note, GI50 for `Fc1cccc(COc2ccc(Nc3ncnc4cc(-c5ccc[nH]5)sc34)cc2Cl)c1` landed at 548 nM

Memo: `c1cnc2[nH]cc(-c3csc(-c4cn(CCCCN5CCOCC5)c5ccccc45)n3)c2c1` , reported GI50: 1920 nM
